# System: OPM2
# Test summary: Anti-proliferative effect (CellTiter-Glo, 72 h), OPM2
# Assay type: cell-based
# Particulars: Homo sapiens, OPM-2, 72 h, OPM2 cells, median, read-out: IC50 antiproliferation assay OPM2 [M] (median)
Reported IC50 values for the following compounds.

| Compound | Experimental system | Value comparator | IC50 (M) |
| --- | --- | --- | --- |
| Cn1nc(COc2ccc(C3=CCOCC3)cc2)c2c1COCCCCn1c(C(=O)O)c(CCCOc3cccc4ccccc34)c3cccc-2c31 (single isomer, unassigned) | OPM2 | = | 7.6e-06 |
| Cc1ccc2c(CCCOc3cccc4ccccc34)c(C(=O)O)n3c2c1-c1c(nn(C)c1C)COCCCC3 (racemic) | OPM2 | = | 1.1e-05 |
| Cn1nc(COc2ccc(C3(O)CCOCC3)cc2)c2c1COCC=CCn1c(C(=O)O)c(CCCOc3cccc4ccccc34)c3cccc-2c31 (racemic) | OPM2 | > | 3.3e-05 |
| CC(C)OCc1nn(C)c2c1-c1cccc3c(CCCOc4cccc5ccccc45)c(C(=O)O)n(c13)CCCN(C)C2 (racemic) [Example 1-70] | OPM2 | = | 1.22e-05 |
| Cc1nn(C)c2c1-c1cccc3c(CCCOc4cccc5ccccc45)c(C(=O)O)n(c13)CCCN(C)C2 (racemic) | OPM2 | = | 2.28e-05 |
| CN1CCCn2c(C(=O)O)c(CCCOc3cccc4ccccc34)c3cccc(c32)-c2c(COc3ccccc3)nn(C)c2C1 (single isomer, unassigned) [Example 1-82] | OPM2 | > | 3.3e-05 |

###

# System: SUDHL10
# Test summary: Anti-proliferative effect (CellTiter-Glo, 72 h), SUDHL10
# Assay type: cell-based
# Particulars: SUDHL10 cells, antiproliferation, 72 h, median, read-out: Antiproli SUDHL10 [M] (median)
This listing pairs compounds with measured IC50.

| Compound | Value comparator | IC50 / M |
| --- | --- | --- |
| Cc1nn(C)c2c1-c1cccc3c(CCCOc4cccc5ccccc45)c(C(=O)O)n(c13)CCCCOC2 (single isomer, unassigned; enantiomer 2) | = | 2.72e-05 |
| Cn1nc(CN2CC3(COC3)C2)c2c1COCCCCn1c(C(=O)O)c(CCCOc3cccc4ccccc34)c3cccc-2c31 (single isomer, unassigned; enantiomer 1) [Example 344] | = | 1.44e-05 |
| CC(=O)NCc1nn(C)c2c1-c1cccc3c(CCCOc4cccc5ccccc45)c(C(=O)O)n(c13)CCCCOC2 (single isomer, unassigned; enantiomer 2) | > | 3.3e-05 |
| COc1ccc(OCc2nn(C)c3c2-c2cccc4c(CCCOc5cccc6ccccc56)c(C(=O)O)n(c24)CCCCOC3)cc1 (single isomer, unassigned; enantiomer 2) [Example 321] | = | 4.61e-06 |
| Cn1nc(CN2CCCC2)c2c1COCCCCn1c(C(=O)O)c(CCCOc3cccc4ccccc34)c3cccc-2c31 (single isomer, unassigned; enantiomer 2) | > | 3.3e-05 |

###

# Tested on: MV-4-11
# Test summary: Anti-proliferative effect (CellTiter-Glo, 72 h), MV-4-11
# Assay type: cell-based
# Particulars: MV-4-11 cells, median, read-out: IC50 antiproliferation assay MV-4-11 [M] (median)
Quantity name: IC50 (M)

| Compound | Experimental system | Reading unit | Value comparator | Recorded result |
| --- | --- | --- | --- | --- |
| COCCn1nc(C2CC2)c2c1COCCCCn1c(C(=O)O)c(CCCOc3cccc4c3CCCC4)c3cccc-2c31 (single isomer, unassigned; enantiomer 1) [Example 165] | MV-4-11 | M | = | 8.15e-06 |
| CCc1nn(C)c2c1-c1c(C)ccc3c(C(C)CCOc4cccc5ccccc45)c(C(=O)O)n(c13)CCCCOC2 (single isomer, unassigned) [Example 275] | MV-4-11 | M | = | 4.52e-06 |
| CCc1c2c(nn1CCN1CCOCC1)COCCCCn1c(C(=O)O)c(CCCOc3cccc4ccccc34)c3ccc(C)c-2c31 (single isomer, unassigned; enantiomer 1) [Example 205] | MV-4-11 | M | = | 2.83e-06 |
| Cn1nc(C(F)(F)F)c2c1COCCCCn1c(C(=O)O)c(CCCOc3cccc4ccccc34)c3cccc-2c31 (single isomer, unassigned) [Example 218] | MV-4-11 | M | = | 3.05e-05 |
| COCCn1nc(C2CC2)c2c1COCCCCn1c(C(=O)O)c(CCCOc3cccc4c3CCCC4)c3cccc-2c31 (single isomer, unassigned; enantiomer 2) [Example 166] | MV-4-11 | M | = | 1.88e-05 |
| Cn1nc(CC(F)(F)F)c2c1COCCCCn1c(C(=O)O)c(CCCOc3cccc4ccccc34)c3cccc-2c31 (single isomer, unassigned) [Example 221] | MV-4-11 | M | > | 3.3e-05 |
| Cn1nc2c(c1CN1CCOCC1)-c1cccc3c(CCCOc4cccc5ccccc45)c(C(=O)O)n(c13)CCCCOC2 (single isomer, unassigned; enantiomer 2) [Example 080] | MV-4-11 | M | = | 1.21e-05 |
| CCc1nn(C)c2c1-c1c(C)ccc3c(C(C)CCOc4cccc5ccccc45)c(C(=O)O)n(c13)CCCCOC2 (single isomer, unassigned) [Example 273] | MV-4-11 | M | = | 4.53e-06 |
| COc1ccccc1-c1ncc(OCc2nn(C)c3c2-c2cccc4c(CCCOc5cccc6ccccc56)c(C(=O)O)n(c24)CCCN(C)C3)cn1 (single isomer, unassigned) [Example 1-92] | MV-4-11 | M | = | 1.57e-06 |
| Cc1c2c(nn1C)CN(C)CCCn1c(C(=O)O)c(CCCOc3cccc4ccccc34)c3cccc-2c31 (single isomer, unassigned; enantiomer 2) [Example 1-35] | MV-4-11 | M | = | 1.96e-05 |
| CCc1nn(C)c2c1-c1cccc3c(CCCOc4cccc5cc(Cl)ccc45)c(C(=O)O)n(c13)CCCCOC2 (single isomer, unassigned; enantiomer 2) [Example 306] | MV-4-11 | M | = | 1.5e-05 |

###

# System: SUDHL5
# Test summary: Induction of cytotoxicity (CellTiter-Glo, 5 h), SUDHL5
# Particulars: read-out: Cytotox SUDHL5 [M] (median); SUDHL5 cells, cytotoxicity induction, CellTiter-Glo, 5 h incubation, median
Listing of recorded log10 of IC50 by entry.
Quantity name: log10 of IC50 (log10 of the value in M)

| Molecule | Recorded result |
| --- | --- |
| Cc1c2c(nn1CCN1CCOCC1)CN(C)CCCn1c(C(=O)O)c(CCCOc3cccc4ccccc34)c3cccc-2c31 (single isomer, unassigned; enantiomer 2) [Example 061] | -4.79 |
| Cc1ccc2c(CCCOc3cccc4ccccc34)c(C(=O)O)n3c2c1-c1c(nn(C)c1C)CN(C)CCC3 (single isomer, unassigned; enantiomer 1) [Example 073] | -5.75 |
| CN1CCCn2c(C(=O)O)c(CCCOc3cccc4ccccc34)c3cccc(c32)-c2c(COc3ccc(N4CCN(S(C)(=O)=O)CC4)cc3)nn(C)c2C1 (single isomer, unassigned; enantiomer 1) [Example 1-46] | -5.82 |
| Cc1c2c(nn1C)CN(C)CCCn1c(C(=O)O)c(CCCOc3cccc4ccccc34)c3cccc-2c31 (single isomer, unassigned; enantiomer 1) [Example 1-34] | -5.47 |
| Cn1nc(COc2ccc(N3CCOCC3)cc2)c2c1COCCCCn1c(C(=O)O)c(CCCOc3cccc4ccccc34)c3cccc-2c31 (single isomer, unassigned; enantiomer 2) [Example 123] | -5.50 |
| Cn1ccnc1COCc1nn(C)c2c1-c1cccc3c(CCCOc4cccc5ccccc45)c(C(=O)O)n(c13)CCCCOC2 (single isomer, unassigned) [Example 232] | -5.12 |
| Cn1nc(CC(F)(F)F)c2c1COCCCCn1c(C(=O)O)c(CCCOc3cccc4ccccc34)c3cccc-2c31 (single isomer, unassigned) [Example 220] | -5.01 |
| Cc1cc(OCCCc2c(C(=O)O)n3c4c(cccc24)-c2c(C)nn(C)c2COCCC3)cc(C)c1Cl (single isomer, unassigned; enantiomer 2) | -4.68 |
| Cc1nn(C)c2c1-c1cccc3c(CCCOc4cccc5ccccc45)c(C(=O)O)n(c13)CCCN(C)C2 (single isomer, unassigned; enantiomer 1) [Example 1-31] | -5.34 |
| COCCn1nc2c(c1C1CC1)-c1cccc3c(CCCOc4cccc5ccccc45)c(C(=O)O)n(c13)CCCCOC2 (single isomer, unassigned; enantiomer 1) [Example 085] | -5.41 |
| Cn1nc(C(F)(F)F)c2c1COCCCCn1c(C(=O)O)c(CCCOc3cccc4ccccc34)c3cccc-2c31 (single isomer, unassigned) [Example 217] | -5.41 |
| CCN(CC)S(=O)(=O)N1CCN(c2ccc(OCc3nn(C)c4c3-c3cccc5c(CCCOc6cccc7ccccc67)c(C(=O)O)n(c35)CCCCOC4)cc2)CC1 (single isomer, unassigned; enantiomer 1) [Example 1-4] | -4.74 |
| Cc1c2c(nn1C)CCCCCCn1c(C(=O)O)c(CCCOc3cccc4ccccc34)c3cccc-2c31 (single isomer, unassigned; enantiomer 1) [Example 191] | -5.73 |
| CN1CCCn2c(C(=O)O)c(CCCOc3cccc4ccccc34)c3cccc(c32)-c2c(CN3CCOCC3)nn(C)c2C1 (single isomer, unassigned; enantiomer 2) | -4.90 |
| O=C(O)c1c(CCCOc2cccc3ccccc23)c2cccc3c2n1CCCCOCc1nn2c(c1-3)OCCC2 (single isomer, unassigned) [Example 248] | -5.47 |
